# maps each entry to its Tracer
# assay-summary: Percentage of tracer or metabolite(EME) in baboon plasma at 1 min after injection of the compound
# Type: ADME, cell-free
# details: cercopithecidae
measure: Tracer (%)

molecule="COC(=O)C1C2CCC(C[C@@H]1OC(=O)c1ccc(I)cc1)N2C (some centres undefined)" unit_abbreviation=% recorded_measurement=1.5
molecule="COC(=O)C1C2CCC(C[C@@H]1OC(=O)c1ccccc1I)N2C (some centres undefined)" unit_abbreviation=% recorded_measurement=0.3
molecule="COC(=O)C1C2CCC(C[C@@H]1OC(=O)c1cccc(I)c1)N2C (some centres undefined)" unit_abbreviation=% recorded_measurement=0.7
molecule=COC(=O)[C@H]1[C@@H](OC(=O)c2ccccc2)C[C@@H]2CC[C@H]1N2C unit_abbreviation=% recorded_measurement=12

---

# assay-summary: Percentage of tracer or metabolite (CO2) in baboon plasma at 30 min after injection of the compound
# Assay type: ADME, cell-free
# details: cercopithecidae, 0.5 h
# maps each entry to its Tracer
measure: Tracer (%)

molecule="COC(=O)C1C2CCC(C[C@@H]1OC(=O)c1cccc(I)c1)N2C (some centres undefined)" recorded_measurement=43
molecule="COC(=O)C1C2CCC(C[C@@H]1OC(=O)c1ccc(I)cc1)N2C (some centres undefined)" recorded_measurement=32
molecule="COC(=O)[C@H]1[C@@H](OC(=O)c2ccccc2)C[C@@H]2CC[C@H]1N2C [COCAINE]" recorded_measurement=44
molecule="COC(=O)C1C2CCC(C[C@@H]1OC(=O)c1ccccc1I)N2C (some centres undefined)" recorded_measurement=29

---

# maps each entry to its Tracer
# assay-summary: Percentage of tracer or metabolite (CO2) in baboon plasma at 5 min after injection of the compound
# Format: ADME, cell-free
# details: cercopithecidae
measure: Tracer (%)

compound="COC(=O)C1C2CCC(C[C@@H]1OC(=O)c1cccc(I)c1)N2C (some centres undefined)" recorded_measurement=17
compound="COC(=O)[C@H]1[C@@H](OC(=O)c2ccccc2)C[C@@H]2CC[C@H]1N2C [COCAINE]" recorded_measurement=30
compound="COC(=O)C1C2CCC(C[C@@H]1OC(=O)c1ccc(I)cc1)N2C (some centres undefined)" recorded_measurement=7
compound="COC(=O)C1C2CCC(C[C@@H]1OC(=O)c1ccccc1I)N2C (some centres undefined)" recorded_measurement=15

---

# assay-summary: Percentage of tracer or metabolite (acid metabolites) in baboon plasma at 1 min after injection of the compound
# Type: ADME, cell-free
# details: cercopithecidae
measure: Tracer (%)

compound="COC(=O)C1C2CCC(C[C@@H]1OC(=O)c1ccc(I)cc1)N2C (some centres undefined)" recorded_measurement=0.5
compound="COC(=O)[C@H]1[C@@H](OC(=O)c2ccccc2)C[C@@H]2CC[C@H]1N2C [COCAINE]" recorded_measurement=0.4
compound="COC(=O)C1C2CCC(C[C@@H]1OC(=O)c1ccccc1I)N2C (some centres undefined)" recorded_measurement=0.02
compound="COC(=O)C1C2CCC(C[C@@H]1OC(=O)c1cccc(I)c1)N2C (some centres undefined)" recorded_measurement=0.4

---

# assay-summary: Percentage of tracer or metabolite(EME) in baboon plasma at 10 min after injection of the compound
# Format: ADME, cell-free
# details: cercopithecidae
# maps each entry to its Tracer
measure: Tracer

compound=COC(=O)[C@H]1[C@@H](OC(=O)c2ccccc2)C[C@@H]2CC[C@H]1N2C recorded_measurement=11%
compound="COC(=O)C1C2CCC(C[C@@H]1OC(=O)c1cccc(I)c1)N2C (some centres undefined)" recorded_measurement=1%
compound="COC(=O)C1C2CCC(C[C@@H]1OC(=O)c1ccccc1I)N2C (some centres undefined)" recorded_measurement=0.2%
compound="COC(=O)C1C2CCC(C[C@@H]1OC(=O)c1ccc(I)cc1)N2C (some centres undefined)" recorded_measurement=2%
